Please provide measured IC50 for the entries that follow.
EXPERIMENT: Cytotoxicity against human HL60 cells after 72 hrs by CCK-8 assay
Assay type: functional, cell-based
APPLIED CONDITIONS: HL-60, 72 h
Write the answer as a number in µM, unit excluded.

Give a short answer stating reported IC50 for CN1C(=O)/C(=C/C(=O)Oc2ccccc2)c2ccccc21 .
10.2

Give a short answer stating reported IC50 for Cc1ccc2c(c1)/C(=C\C(=O)OC(C)(C)C)C(=O)N2 .
5

Give a short answer stating reported IC50 for CC(C)(C)OC(=O)/C=C1/C(=O)Nc2ccc([N+](=O)[O-])cc21 .
9.86

Give a short answer stating reported IC50 for CCN(CC)CCNC(=O)c1c(C)[nH]c(/C=C2\C(=O)Nc3ccc(F)cc32)c1C .
4.95
